Provenance of the data: ChEMBL document CHEMBL5724806

Test: The drug is tested on the gut metagenome community of A-02 with ENA study accession number: PRJEB31790 for biotransformation under anaerobic condition. The drug concentrations were measured over 7 timepoints collected between 0 and 12 hours of incubation by liquid-chromatography-coupled mass spectrometry (LC–MS)
Type: ADME
Set-up: dose 5 uM, timepoint 0, 0.75, 1.5, 3, 6, 9, 12 hours
Conditions: 5 µM
outcome.measure: Bacterial Biotransformation

- compound: "COc1c(C)c2c(c(O)c1C/C=C(\\C)CCC(=O)O)C(=O)OC2"
  outcome.measure: "Bacterial Biotransformation"
  measurement: "Compound NOT metabolized"
- compound: "C[C@]12CCC(=O)C=C1CC[C@@H]1[C@@H]2[C@@H](O)C[C@@]2(C)[C@H]1CC[C@]2(O)C(=O)CO [HYDROCORTISONE]"
  outcome.measure: "Bacterial Biotransformation"
  measurement: "Compound metabolized"
- compound: "CCOC(=O)[C@H](CCc1ccccc1)N[C@@H](C)C(=O)N1[C@H](C(=O)O)C[C@@H]2CCC[C@@H]21"
  outcome.measure: "Bacterial Biotransformation"
  measurement: "Compound NOT metabolized"
- compound: "CNC(=C[N+](=O)[O-])NCCSCc1ccc(CN(C)C)o1"
  outcome.measure: "Bacterial Biotransformation"
  measurement: "Compound metabolized"

Now consider the entry below.
Could you tell me which Bacterial Biotransformation is on file for COc1c(C)c2c(c(O)c1C/C=C(\C)CCC(=O)OCCN1CCOCC1)C(=O)OC2 [MYCOPHENOLATE MOFETIL] ? Compound metabolized

----------
Assay: The drug is tested on Actinomyces naeslundi strain: DSM43013 for biotransformation under microaerobic condition. The drug concentrations were measured over 6 timepoints collected between 0 and 12 hours of incubation by liquid-chromatography-coupled mass spectrometry (LC–MS)
Assay type: ADME
Design: dose 5 uM, timepoint 0, 1.5, 3, 6, 9, 12 hours
Settings: actinomyces naeslundii, 5 µM
outcome.measure: Bacterial Biotransformation

These recorded examples may help you get a feel for the data.
- compound: "CCCC1O[C@@H]2C[C@H]3[C@@H]4CCC5=CC(=O)C=C[C@]5(C)[C@H]4[C@@H](O)C[C@]3(C)[C@]2(C(=O)CO)O1 (stereo not given in full) [BUDESONIDE]"
  measurement: "Compound NOT metabolized"
- compound: "CO[C@H]1C[C@@H]2CC[C@@H](C)[C@@](O)(O2)C(=O)C(=O)N2CCCC[C@H]2C(=O)O[C@H]([C@H](C)C[C@@H]2CC[C@@H](O)[C@H](OC)C2)CC(=O)[C@H](C)/C=C(\\C)[C@@H](O)[C@@H](OC)C(=O)[C@H](C)C[C@H](C)/C=C/C=C/C=C/1C"
  measurement: "Compound NOT metabolized"
- compound: "CCC(C)(C)C(=O)O[C@H]1C[C@@H](C)C=C2C=C[C@H](C)[C@H](CC[C@@H]3C[C@@H](O)CC(=O)O3)[C@H]21"
  measurement: "Compound NOT metabolized"
- compound: "C[C@H]1C[C@@H]2[C@H]([C@@H](O)C[C@@]3(C)[C@H]2CC[C@]3(O)C(=O)CO)[C@@]2(C)C=CC(=O)C=C12"
  measurement: "Compound NOT metabolized"

Lab note: next compound to report on.
I'd like to know its Bacterial Biotransformation. The compound in question is `C[C@]12CCC(=O)C=C1CC[C@@H]1[C@@H]2C(=O)C[C@@]2(C)[C@H]1CC[C@]2(O)C(=O)CO` Compound NOT metabolized

----------
Test: The drug is tested on the gut metagenome community of A-04 with ENA study accession number: PRJEB31790 for biotransformation under anaerobic condition. The drug concentrations were measured over 7 timepoints collected between 0 and 12 hours of incubation by liquid-chromatography-coupled mass spectrometry (LC–MS)
Assay type: ADME
Design: dose 5 uM, timepoint 0, 0.75, 1.5, 3, 6, 9, 12 hours
Settings: 5 µM
outcome.measure: Bacterial Biotransformation

Sample records with Bacterial Biotransformation:
- molecule: "CC(C)NCC(O)COc1ccc(CC(N)=O)cc1 (centres undefined)"
  outcome.measure: "Bacterial Biotransformation"
  measurement: "Compound NOT metabolized"
- molecule: "C[C@]12CCC(=O)C=C1CC[C@@H]1[C@@H]2[C@@H](O)C[C@@]2(C)[C@H]1CC[C@]2(O)C(=O)CO [HYDROCORTISONE]"
  outcome.measure: "Bacterial Biotransformation"
  measurement: "Compound metabolized"
- molecule: "CNC(=C[N+](=O)[O-])NCCSCc1ccc(CN(C)C)o1"
  outcome.measure: "Bacterial Biotransformation"
  measurement: "Compound metabolized"
- molecule: "CN(Cc1cnc2nc(N)nc(N)c2n1)c1ccc(C(=O)N[C@@H](CCC(=O)O)C(=O)O)cc1 [METHOTREXATE]"
  outcome.measure: "Bacterial Biotransformation"
  measurement: "Compound metabolized"
- molecule: "COc1ccc([C@@H]2Sc3ccccc3N(CCN(C)C)C(=O)[C@@H]2OC(C)=O)cc1"
  outcome.measure: "Bacterial Biotransformation"
  measurement: "Compound metabolized"
- molecule: "C[C@]12CCC(=O)C=C1CC[C@@H]1[C@@H]2C(=O)C[C@@]2(C)[C@H]1CC[C@]2(O)C(=O)CO"
  outcome.measure: "Bacterial Biotransformation"
  measurement: "Compound metabolized"

Entry `CO[C@H]1C[C@@H]2CC[C@@H](C)[C@@](O)(O2)C(=O)C(=O)N2CCCC[C@H]2C(=O)O[C@H]([C@H](C)C[C@@H]2CC[C@@H](O)[C@H](OC)C2)CC(=O)[C@H](C)/C=C(\C)[C@@H](O)[C@@H](OC)C(=O)[C@H](C)C[C@H](C)/C=C/C=C/C=C/1C` has what Bacterial Biotransformation? Compound metabolized

Looking for the measured Bacterial Biotransformation of `CCOc1nc2cccc(C(=O)O)c2n1Cc1ccc(-c2ccccc2-c2nnn[nH]2)cc1` , can you help? Compound NOT metabolized

Name the recorded Bacterial Biotransformation for `C[C@]12C=CC(=O)C=C1CC[C@@H]1[C@@H]2[C@@H](O)C[C@@]2(C)[C@H]1CC[C@]2(O)C(=O)CO` . Compound metabolized

# query: Bacterial Biotransformation of entry `CCC(C)(C)C(=O)O[C@H]1C[C@@H](C)C=C2C=C[C@H](C)[C@H](CC[C@@H]3C[C@@H](O)CC(=O)O3)[C@H]21` Compound NOT metabolized

So what's the measured Bacterial Biotransformation for this one? CCOC(=O)C1=C(COCCN)NC(C)=C(C(=O)OC)C1c1ccccc1Cl (centres undefined) Compound NOT metabolized

Query: Bacterial Biotransformation; subject: `COc1c(C)c2c(c(O)c1C/C=C(\C)CCC(=O)O)C(=O)OC2` Compound NOT metabolized

// query Bacterial Biotransformation value for entry `C[C@]12C=CC(=O)C=C1CC[C@@H]1[C@@H]2C(=O)C[C@@]2(C)[C@H]1CC[C@]2(O)C(=O)CO` Compound metabolized

Given the entry `CCOC(=O)[C@H](CCc1ccccc1)N[C@@H](C)C(=O)N1[C@H](C(=O)O)C[C@@H]2CCC[C@@H]21` , report its measured Bacterial Biotransformation. Compound NOT metabolized

Form field: reported Bacterial Biotransformation of `CO[C@H]1C[C@@H]2CC[C@@H](C)[C@@](O)(O2)C(=O)C(=O)N2CCCC[C@H]2C(=O)O[C@H]([C@H](C)C[C@@H]2CC[C@@H](OCCO)[C@H](OC)C2)CC(=O)[C@H](C)/C=C(\C)[C@@H](O)[C@@H](OC)C(=O)[C@H](C)C[C@H](C)/C=C/C=C/C=C/1C` Compound metabolized

Quick one: Bacterial Biotransformation of `C[C@@H]1C[C@H]2[C@@H]3CCC4=CC(=O)C=C[C@]4(C)[C@@]3(F)[C@@H](O)C[C@]2(C)[C@@]1(O)C(=O)CO` ? Compound metabolized

Could you tell me which Bacterial Biotransformation is on file for NS(=O)(=O)c1cc(C(=O)O)c(NCc2ccco2)cc1Cl [FUROSEMIDE] ? Compound NOT metabolized

Look up Bacterial Biotransformation for this molecule: `C=CC[C@@H]1/C=C(\C)C[C@H](C)C[C@H](OC)[C@H]2O[C@@](O)(C(=O)C(=O)N3CCCC[C@H]3C(=O)O[C@H](/C(C)=C/[C@@H]3CC[C@@H](O)[C@H](OC)C3)[C@H](C)[C@@H](O)CC1=O)[C@H](C)C[C@@H]2OC.O` Compound metabolized

Which Bacterial Biotransformation value belongs to `C[C@H]1C[C@@H]2[C@H]([C@@H](O)C[C@@]3(C)[C@H]2CC[C@]3(O)C(=O)CO)[C@@]2(C)C=CC(=O)C=C12` ? Compound metabolized

Entry `C[C@H]1C[C@H]2[C@@H]3CCC4=CC(=O)C=C[C@]4(C)[C@@]3(F)[C@@H](O)C[C@]2(C)[C@@]1(O)C(=O)CO` : reported Bacterial Biotransformation = ? Compound metabolized

Quick check: Bacterial Biotransformation of CCCC1O[C@@H]2C[C@H]3[C@@H]4CCC5=CC(=O)C=C[C@]5(C)[C@H]4[C@@H](O)C[C@]3(C)[C@]2(C(=O)CO)O1 (some centres undefined) [BUDESONIDE] ? Compound NOT metabolized

Recorded Bacterial Biotransformation of `C[C@@H](NCCCc1cccc(C(F)(F)F)c1)c1cccc2ccccc12` , please. Compound NOT metabolized

What does the record list as Bacterial Biotransformation for COc1c(C)c2c(c(O)c1C/C=C(\C)CCC(=O)OCCN1CCOCC1)C(=O)OC2 [MYCOPHENOLATE MOFETIL] ? Compound metabolized

State the recorded Bacterial Biotransformation for this entry: `Cn1cnc([N+](=O)[O-])c1Sc1ncnc2nc[nH]c12` Compound metabolized
